Measured values drawn from ChEMBL document CHEMBL3085708 for this set.

- ASSAY_PROTOCOL: Elimination half life in OF1 mouse brain at 10 mg/kg, po
- Format: ADME, organism-based
- Set-up: dose 10 mg/kg, route oral
- CONDITION_DESCRIPTION: read-out: beta t1/2 (converted)
METRIC_NAME: half-life (min)
Lab book: enter the figure in min, no units written.

Request: Which value of half-life has been reported for Cc1cc(N2CC[C@H](N3CCC[C@@H]3C)C2)ccc1NC(=O)c1c(C)noc1C in the records?
Result: 282

----------
- MEASUREMENT_TARGET: Cytochrome P450 2C9 (Homo sapiens)
- Sequence (P11712 whole entry): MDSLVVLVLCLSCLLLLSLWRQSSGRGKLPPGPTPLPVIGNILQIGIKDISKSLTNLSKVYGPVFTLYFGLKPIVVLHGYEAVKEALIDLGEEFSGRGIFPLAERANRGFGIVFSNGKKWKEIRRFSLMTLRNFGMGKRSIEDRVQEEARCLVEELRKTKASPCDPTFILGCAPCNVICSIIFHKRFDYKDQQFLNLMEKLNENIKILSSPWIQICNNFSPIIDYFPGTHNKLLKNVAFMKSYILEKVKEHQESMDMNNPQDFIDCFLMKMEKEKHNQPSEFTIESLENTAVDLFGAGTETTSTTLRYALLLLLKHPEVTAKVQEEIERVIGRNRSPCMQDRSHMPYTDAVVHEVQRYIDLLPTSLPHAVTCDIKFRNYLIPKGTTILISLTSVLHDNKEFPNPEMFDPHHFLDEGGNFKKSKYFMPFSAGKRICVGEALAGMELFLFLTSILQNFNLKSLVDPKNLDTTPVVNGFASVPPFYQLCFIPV
pIC50: −log10 of the molar value.
METRIC_NAME: pIC50

Request: Give Cytochrome P450 2C9 (Homo sapiens) pIC50 for Cc1cc(N2CC[C@H](N3CCC[C@@H]3C)C2)ccc1NC(=O)c1c(C)noc1C
Result: < 4.00

----------
- ASSAY_PROTOCOL: Drug metabolism in dog plasma at 100 ng/ml after 4 hrs
- Assay type: ADME, cell-free, Canis lupus familiaris
- CONDITION_DESCRIPTION: read-out: Drug metabolism
METRIC_NAME: metabolised at 4 h, 100 ng/ml

Request: # query: metabolised at 4 h, 100 ng/ml of entry Cc1cc(N2CC[C@H](N3CCC[C@@H]3C)C2)ccc1NC(=O)c1c(C)noc1C
Result: < 5%

----------
- ASSAY_PROTOCOL: Oral bioavailability in OF1 mouse at 10 mg/kg
- Assay type: ADME, organism-based
- CONDITION_DESCRIPTION: in vivo
METRIC_NAME: bioavailability (%)
Please reply with the bare figure in % and do not write the unit itself.

Request: Request the reported bioavailability associated with Cc1cc(N2CC[C@H](N3CCC[C@@H]3C)C2)ccc1NC(=O)c1c(C)noc1C
Result: 57

----------
- ASSAY_PROTOCOL: Toxicity in po dosed mouse
- CONDITION_DESCRIPTION: in vivo
METRIC_NAME: MTD (mg/kg)
Reply numerically in mg/kg, unit not repeated.

Request: Look up MTD for this compound: Cc1cc(N2CC[C@H](N3CCC[C@@H]3C)C2)ccc1NC(=O)c1c(C)noc1C
Result: 30

----------
- ASSAY_PROTOCOL: Volume of distribution in Sprague-Dawley rat at 2 mg/kg, iv
- Assay type: ADME, organism-based
- Parameters: dose 2 mg/kg, route intravenous
- CONDITION_DESCRIPTION: in vivo
METRIC_NAME: Vd (L/kg)
Kindly answer with a numeric value in L/kg, unit omitted.

Request: Any idea what its Vd is? The molecule is Cc1cc(N2CC[C@H](N3CCC[C@@H]3C)C2)ccc1NC(=O)c1c(C)noc1C
Result: 2.8

----------
- ASSAY_PROTOCOL: Toxicity in guinea pig heart assessed as decrease in ventricular contraction at 30 uM relative to control
- Format: tissue-based, Cavia porcellus, Cardiac ventricle
METRIC_NAME: inhibition at 30 µM (%)
State the answer as a number, implicitly in %.

Request: Endpoint output: inhibition at 30 µM of Cc1cc(N2CC[C@H](N3CCC[C@@H]3C)C2)ccc1NC(=O)c1c(C)noc1C . Value?
Result: 33

----------
- MEASUREMENT_TARGET: Voltage-gated inwardly rectifying potassium channel KCNH2 (Canis lupus familiaris)
- Sequence (Q9TSZ3 whole entry): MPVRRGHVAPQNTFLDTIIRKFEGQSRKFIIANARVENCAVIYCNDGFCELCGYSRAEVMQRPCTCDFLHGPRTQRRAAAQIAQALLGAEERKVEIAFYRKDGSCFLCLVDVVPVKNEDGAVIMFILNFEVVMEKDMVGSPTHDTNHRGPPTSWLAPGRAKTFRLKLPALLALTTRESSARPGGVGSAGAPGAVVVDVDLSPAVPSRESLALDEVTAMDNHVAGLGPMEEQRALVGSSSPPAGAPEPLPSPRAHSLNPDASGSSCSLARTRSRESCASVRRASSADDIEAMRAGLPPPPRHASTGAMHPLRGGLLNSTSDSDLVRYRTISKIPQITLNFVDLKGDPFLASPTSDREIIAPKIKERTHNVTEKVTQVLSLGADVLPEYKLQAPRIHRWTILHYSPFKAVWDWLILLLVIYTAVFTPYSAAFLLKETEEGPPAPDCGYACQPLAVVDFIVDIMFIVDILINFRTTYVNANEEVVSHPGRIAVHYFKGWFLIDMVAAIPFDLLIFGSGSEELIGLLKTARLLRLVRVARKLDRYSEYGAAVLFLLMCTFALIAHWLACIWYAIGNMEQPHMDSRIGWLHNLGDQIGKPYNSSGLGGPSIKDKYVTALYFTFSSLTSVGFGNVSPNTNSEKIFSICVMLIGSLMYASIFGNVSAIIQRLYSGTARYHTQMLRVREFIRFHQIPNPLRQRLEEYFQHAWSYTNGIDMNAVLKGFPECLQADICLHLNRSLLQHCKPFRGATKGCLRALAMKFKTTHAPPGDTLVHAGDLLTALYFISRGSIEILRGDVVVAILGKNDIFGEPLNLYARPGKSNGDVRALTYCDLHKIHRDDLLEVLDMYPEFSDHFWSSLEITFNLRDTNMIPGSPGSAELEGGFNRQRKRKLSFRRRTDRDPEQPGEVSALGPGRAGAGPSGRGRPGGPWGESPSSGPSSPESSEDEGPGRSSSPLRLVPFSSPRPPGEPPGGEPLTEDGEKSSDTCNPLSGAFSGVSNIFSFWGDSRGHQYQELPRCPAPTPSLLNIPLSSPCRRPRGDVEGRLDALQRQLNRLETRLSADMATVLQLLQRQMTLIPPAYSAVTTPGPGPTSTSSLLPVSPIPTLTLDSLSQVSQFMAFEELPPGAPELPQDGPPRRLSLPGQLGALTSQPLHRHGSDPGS
- ASSAY_PROTOCOL: Inhibition of canine ERG current transfected in CHO cells by patch clamp assay
METRIC_NAME: IC50 (µM)
Unit µM implied. Number only.

Request: Please look up its IC50: Cc1cc(N2CC[C@H](N3CCC[C@@H]3C)C2)ccc1NC(=O)c1c(C)noc1C
Result: 44
